- System: PC-3 cells
- ASSAY_REMARKS: MTT cell viability assay, PC-3 cells in 10% FBS medium
- Assay type: cell-based, human
- CONDITION_NOTES: Homo sapiens, PC-3, 48 h, RPMI 1640 with 10% FBS, means ± S.D. (n = 6)
This listing pairs compounds with measured IC50.
Reply numerically in µM, unit not repeated.

[[record]]
smiles_string = "COc1cc2nc(N3CCN(S(=O)(=O)c4cc(C(=O)O)c(Cl)cc4F)CC3)nc(N)c2cc1OC"
subject_of_test = "PC-3 cells"
property_measured = "IC50"
endpoint_result = 56

[[record]]
smiles_string = "COc1cc2nc(N3CCN(S(=O)(=O)c4cccc([N+](=O)[O-])c4)CC3)nc(N)c2cc1OC"
subject_of_test = "PC-3 cells"
property_measured = "IC50"
endpoint_result = 32

[[record]]
smiles_string = "COc1cc2nc(N3CCN(C(=O)c4ccc(C#N)cc4)CC3)nc(N)c2cc1OC"
subject_of_test = "PC-3 cells"
property_measured = "IC50"
endpoint_result = 68

[[record]]
smiles_string = "COc1cc2nc(N3CCN(S(=O)(=O)c4cccc5ccccc45)CC3)nc(N)c2cc1OC"
subject_of_test = "PC-3 cells"
property_measured = "IC50"
endpoint_result = 14


Reported IC50 of COc1ccc(C(=O)N2CCN(c3nc(N)c4cc(OC)c(OC)cc4n3)CC2)cc1OC : 71

Reported IC50 of COc1cc2nc(N3CCN(S(=O)(=O)c4ccc(-c5ccc(C(F)(F)F)cc5)cc4)CC3)nc(N)c2cc1OC : 3.3

Reported IC50 of CC(C)Oc1cc2nc(N3CCN(S(=O)(=O)c4ccc(-c5ccccc5)cc4)CC3)nc(N)c2cc1OC(C)C : 24

---

- Test system: PC-3 cells
- ASSAY_REMARKS: MTT cell viability assay, PC-3 cells in 10% FBS medium
- Assay type: cell-based, human
- CONDITION_NOTES: Homo sapiens, PC-3, 48 h, RPMI 1640 with 10% FBS, means ± S.D. (n = 6)
Each record is given label 1 if its reported IC50 is strictly below 50 µM. Records at or above 50 µM are given label 0.

Consider the worked cases shown below.
[[record]]
compound = "COc1cc2nc(N3CCN(C(=O)OCc4ccccc4)CC3)nc(N)c2cc1OC [Compound 3]"
assigned_category = "label 0"

[[record]]
compound = "COc1cc2nc(N3CCN(C(=O)c4ccc(N)cc4)CC3)nc(N)c2cc1OC [Compound 8]"
assigned_category = "label 0"


Check if IC50 falls below 50 µM for COc1cc2nc(N3CCN(S(=O)(=O)c4cccc(C(=O)O)c4)CC3)nc(N)c2cc1OC [Compound 24] .
label 0

Check if IC50 falls below 50 µM for COc1cc2nc(N3CCN(S(=O)(=O)c4cc(Cl)ccc4Cl)CC3)nc(N)c2cc1OC [Compound 26] .
label 0

Check if IC50 falls below 50 µM for COc1cc2nc(N3CCN(S(=O)(=O)c4ccc(I)cc4)CC3)nc(N)c2cc1OC [Compound 13] .
label 1

Check if IC50 falls below 50 µM for COc1cc2nc(N3CCN(C(=O)c4ccc(Cl)cc4)CC3)nc(N)c2cc1OC [Compound 1] .
label 0

Check if IC50 falls below 50 µM for COc1cc2nc(N3CCN(C(=O)c4ccc(C(F)(F)F)cc4)CC3)nc(N)c2cc1OC [Compound 10] .
label 0

Check if IC50 falls below 50 µM for COc1cc2nc(N3CCN(S(=O)(=O)c4ccc5ccccc5c4)CC3)nc(N)c2cc1OC [Compound 31] .
label 1

Check if IC50 falls below 50 µM for COc1cc2nc(N3CCN(S(=O)(=O)c4ccc([N+](=O)[O-])cc4)CC3)nc(N)c2cc1OC [Compound 17] .
label 1

---

- Tested on: PC-3 cells
- ASSAY_REMARKS: MTT cell viability assay, PC-3 cells in 10% FBS medium
- Format: cell-based, human
- CONDITION_NOTES: Homo sapiens, PC-3, 48 h, RPMI 1640 with 10% FBS, means ± S.D. (n = 6)
This listing pairs compounds with measured pIC50.
// field semantics: pIC50 = negative decimal log of concentration (mol/L)

[[record]]
smiles_string = "COc1ccc(S(=O)(=O)N2CCN(c3nc(N)c4cc(OC)c(OC)cc4n3)CC2)cc1"
property_measured = "pIC50"
endpoint_result = 4.41

[[record]]
smiles_string = "CCCCc1ccc(-c2ccc(S(=O)(=O)N3CCN(c4nc(N)c5cc(OC)c(OC)cc5n4)CC3)cc2)cc1"
property_measured = "pIC50"
endpoint_result = 5.47

[[record]]
smiles_string = "COc1cc2nc(N3CCN(S(=O)(=O)c4ccc(-c5ccc(C(C)(C)C)cc5)cc4)CC3)nc(N)c2cc1OC"
property_measured = "pIC50"
endpoint_result = 5.00

[[record]]
smiles_string = "COc1cc2nc(N3CCN(S(=O)(=O)c4ccc(C)cc4)CC3)nc(N)c2cc1OC"
property_measured = "pIC50"
endpoint_result = 4.52


// assay PC-3 cells, entry COc1cc2nc(N3CCN(S(=O)(=O)c4ccc(N)cc4N)CC3)nc(N)c2cc1OC , pIC50 value = 4.17

---

- System: PC-3 cells
- ASSAY_REMARKS: MTT cell viability assay, PC-3 cells in 10% FBS medium
- Type: cell-based, human
- CONDITION_NOTES: Homo sapiens, PC-3, 48 h, RPMI 1640 with 10% FBS, means ± S.D. (n = 6)
PROPERTY_MEASURED: IC50

The examples below pair each entry with its known result.
[[record]]
compound = "COc1cc2nc(N3CCN(S(=O)(=O)c4ccc(-c5cc6ccccc6c6ccccc56)cc4)CC3)nc(N)c2cc1OC [Compound 35]"
property_measured = "IC50"
endpoint_result = "4 to 5 µM"

[[record]]
compound = "COc1cc2nc(N3CCN(S(=O)(=O)c4ccc(-c5ccccc5)cc4)CC3)nc(N)c2cc1OC [Compound 33]"
property_measured = "IC50"
endpoint_result = "4 to 5 µM"


We next turn to a different compound, shown below.
Reported IC50 of COc1cc2nc(N3CCN(S(=O)(=O)c4ccc(C(C)(C)C)cc4)CC3)nc(N)c2cc1OC [Compound 23] : 4 to 5 µM

All values here come from patent US8377948B2.
